# Tested on: ATP;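 also: ATP exposure 15 min at 22 °C before imaging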
# experimental-protocol: switch fluorescence ratio, 500 uM ATP over buffer (Cy3 cluster intensity, sum of 5 cycles each) (fold (ratio)); higher = stronger signal-on switching upon ATP binding; sequences stand for … in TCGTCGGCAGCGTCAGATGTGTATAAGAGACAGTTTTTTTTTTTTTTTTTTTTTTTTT…TC
# condition: aptamer strand: ATP DNA aptamer (quencher-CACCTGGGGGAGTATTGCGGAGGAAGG + anchor), 100 nM annealed; ATP concentration: 500 uM
reported-property: switch fluorescence ratio
Would you mind answering with just the numeric figure?

Indicate its recorded switch fluorescence ratio; the sequence in question is `AATAGGGGTT`
0.984

// Input: `GTGCGAGAGC` . Output its switch fluorescence ratio only.
1.01
